Could you please report measured melting point for the items listed next?

Task item: Give the reported melting point for this compound. "COc1ccc(C2=NN(C3CCN(S(=O)(=O)c4ccccc4C)CC3)C(=O)C(C)(C)C2)cc1OC"
Reply: 132 to 133 °C

Task item: Give the reported melting point for this compound. "COC(=O)C(=O)N(N=C(C#N)c1ccc(C#N)cc1)c1c(Cl)cc(C(F)(F)F)cc1Cl"
Reply: 194 to 195 °C

Task item: Give the reported melting point for this compound. "CCCc1cn(C)cc(-c2ccc(Cl)c(C(F)(F)F)c2)c1=O"
Reply: 141 to 142 °C

Task item: Give the reported melting point for this compound. Cc1nc2cc3c(cc2s1)C1(CO3)C(=O)Nc2ccccc21 (stereo unspecified)
Reply: > 250 °C

Task item: Give the reported melting point for this compound. "Cn1c2ccccc2c2nc3cccc(C=O)c3nc21"
Reply: 219 to 221 °C

Task item: Give the reported melting point for this compound. "Cc1cc(F)c(Cl)cc1[N+](=O)[O-]"
Reply: 57 to 58 °C

Task item: Give the reported melting point for this compound. "COC(=O)c1cccc(Cn2c(C(=O)NC(N)=S)cc3cc(C)cc(C)c32)c1"
Reply: 198 to 199 °C

Task item: Give the reported melting point for this compound. CCON=C(C(C)=NO)c1ccc(OC(C)c2ccc(Cl)cc2)cc1 (stereo unspecified)
Reply: 132 to 134 °C

Task item: Give the reported melting point for this compound. "CCc1nc2c(-c3ccc(Cl)cc3Cl)nnc(C)c2n1C(CC)CC"
Reply: 63 to 64 °C

Task item: Give the reported melting point for this compound. "O=C(c1ccccc1)c1c[nH]nc1-c1cccc(Cl)c1"
Reply: 161 to 164 °C

Task item: Give the reported melting point for this compound. "COc1ccc(CC#N)c(CC#N)c1"
Reply: 49 to 51 °C

Task item: Give the reported melting point for this compound. "O=[N+]([O-])c1ccc(Cn2c(CO)nc3ccccc32)cc1"
Reply: 162 to 165 °C

Task item: Give the reported melting point for this compound. "COc1nc(NC(=O)NS(=O)(=O)Oc2ccccc2-c2ccon2)nc(OC)n1"
Reply: 166 to 168 °C

Task item: Give the reported melting point for this compound. "CSc1nc(Cc2ccccc2N)n[nH]1"
Reply: 99 to 102 °C

Task item: Give the reported melting point for this compound. "N#CN(Cc1ccccc1)c1ccccn1"
Reply: 65 to 66 °C

Task item: Give the reported melting point for this compound. "CCc1noc(-c2ccc(OCCC3CCN(c4ccc(C)nn4)CC3)cc2)n1"
Reply: 122 °C

Task item: Give the reported melting point for this compound. CCOc1cc(C2CC=CN(C(=O)c3ccc(NC(=O)OCCCN(C)C)cc3)N2)ccc1OC (stereo unspecified)
Reply: 193 °C

Task item: Give the reported melting point for this compound. CC(O)c1ccc2c3c1ccn3C(=O)CNC2 (stereo unspecified)
Reply: 295 to 297 °C

Task item: Give the reported melting point for this compound. "CNCc1ccc([C@H]2CC[C@H](OC(=O)Cc3ccc(Cl)cc3)CC2)cc1"
Reply: 65 to 67 °C

Task item: Give the reported melting point for this compound. Brc1ccc(OC2CCN(c3nc4cccc5c4n3CCC5)CC2c2ccccc2)cc1 (stereo unspecified)
Reply: 188 to 189 °C

Task item: Give the reported melting point for this compound. "NC(=O)N1C(=O)Cc2cc(N)ccc21"
Reply: 189 to 191 °C

Task item: Give the reported melting point for this compound. "CN(CC(=O)O)C(=S)c1ccc(Cl)cc1"
Reply: 72 to 73 °C

Task item: Give the reported melting point for this compound. COP(=O)(OC)C(O)C(CC1CCCCC1)NC(=O)C(CC(C)C)NC(=O)OC(C)(C)C (stereo unspecified)
Reply: 157 °C

Task item: Give the reported melting point for this compound. "Cc1ccc(S(=O)(=O)OC2CCN(S(=O)(=O)c3ccc(C)cc3)CC2)cc1"
Reply: 137 to 140 °C

Task item: Give the reported melting point for this compound. "Nc1nc(N)c(N)c(OCc2ccccc2)n1"
Reply: 130 to 135 °C

Task item: Give the reported melting point for this compound. Nc1cccc(C#Cc2ccc(OC3CN4CCC3CC4)nn2)c1 (stereo unspecified)
Reply: 152 to 158 °C

====

Quantity kind: melting point

Task item: Give the reported melting point for this compound. "N#Cc1ccc(OCc2ccc3c(c2)OCO3)cc1F"
Reply: 139 to 140 °C

Task item: Give the reported melting point for this compound. "COc1cccc(OC)c1-c1ccccc1P(C1CCCCC1)C1CCCCC1"
Reply: 163 to 165 °C

Task item: Give the reported melting point for this compound. CC(NC(C)CN(CC(C)NC(C)=C1C(=O)CC(C)(C)CC1=O)C(=O)/C=C\C(=O)O)=C1C(=O)CC(C)(C)CC1=O (stereo not drawn)
Reply: 68 to 70 °C

====

Could you please report measured melting point for the items listed next?

Task item: Give the reported melting point for this compound. "Cc1cc(C)c2c(c1)S(=O)(=O)NCN2"
Reply: 160 to 165 °C

Task item: Give the reported melting point for this compound. NC(=O)c1cnn(C2OC(CO)C(O)C2O)n1 (centres undefined)
Reply: 150 to 151 °C

Task item: Give the reported melting point for this compound. "OCc1cnoc1-c1ccc(F)c(Cl)c1"
Reply: 106 to 107 °C

Task item: Give the reported melting point for this compound. CC1CCN(C)c2nc3[nH]c(=O)cc(C(F)(F)F)c3cc21 (centres undefined)
Reply: 225 to 230 °C

====

Could you please report measured melting point for the items listed next?

Task item: Give the reported melting point for this compound. "Cc1cccc(C)c1C=NNC(=N)NCc1ccccc1"
Reply: 125 to 126 °C

Task item: Give the reported melting point for this compound. "CCCCCCCNC(=O)Nc1ccc(-n2ccnc2)cc1C(=O)NCC1CCN(C(c2ccccc2)c2ccccc2)CC1"
Reply: 183 to 185 °C

Task item: Give the reported melting point for this compound. "Cc1ncc(CN2CC=C(C#Cc3ccccc3)CC2)c(N)n1"
Reply: 187 to 188 °C

Task item: Give the reported melting point for this compound. "O=C(CCCCC1(C(=O)O)CC1)CCCCC1(C(=O)O)CC1"
Reply: 132 to 134 °C

Task item: Give the reported melting point for this compound. "CCOC(=O)c1ccc(-c2nc(COc3ccc(CO)cc3OC)c(C)o2)s1"
Reply: 108 to 109 °C

Task item: Give the reported melting point for this compound. "Cc1cc2cc([N+](=O)[O-])ccc2o1"
Reply: 93 to 95 °C

====

Quantity kind: melting point (°C)
# unit: °C | format: bare number

Task item: Give the reported melting point for this compound. "O=C1c2ccccc2C(=O)N1CCCCc1cc(-c2ccccn2)nc(-c2ccccn2)c1"
Reply: 128

Task item: Give the reported melting point for this compound. "O=C(O)c1ccc2cc(OCCOc3ccc4c(CCO)c(C(=O)O)c(CCO)cc4c3)ccc2c1"
Reply: 240

Task item: Give the reported melting point for this compound. "COc1cccc(-c2nc(Cl)nc(Nc3cccc([N+](=O)[O-])c3)n2)c1"
Reply: 155

Task item: Give the reported melting point for this compound. "COc1ccc(N2CCN(c3ccc([N+](=O)[O-])cc3)CC2)cc1"
Reply: 195

====

Could you please report measured melting point for the items listed next?

Task item: Give the reported melting point for this molecule. "O=C1c2ccccc2C(=O)N1CCCOc1cccc2c(N3CCCCC3)nccc12"
Reply: 146 to 147 °C

Task item: Give the reported melting point for this molecule. "COc1ccc(Oc2ccc(OCc3ccccc3)cc2[N+](=O)[O-])cc1"
Reply: 120 °C

Task item: Give the reported melting point for this molecule. "O=C(CC(=O)c1cc(O)ccc1O)c1ccc(OCc2ccccc2)c(OCc2ccccc2)c1"
Reply: 196 to 197 °C

Task item: Give the reported melting point for this molecule. "COP(=O)(OC)[C@H](C)NC(=O)[C@H](C)NC(=O)[C@H](C)NC(=O)CNC(=O)OCc1ccccc1"
Reply: 162 to 164 °C

Task item: Give the reported melting point for this molecule. "Cc1oc(-c2ccccc2)nc1COc1ccc2cc(CCCCC#N)oc2c1"
Reply: 87 to 88 °C

Task item: Give the reported melting point for this molecule. COc1ccccc1NC(=O)c1ccccc1CN1C(=O)C2(COc3cc4c(cc32)CCO4)c2ccccc21 (stereo not given)
Reply: 172 to 174 °C

Task item: Give the reported melting point for this molecule. "CNS(=O)(=O)c1ccc(C2=C(c3cccc(F)c3)C(=O)C(C)(C)O2)cc1"
Reply: 176 to 177 °C

Task item: Give the reported melting point for this molecule. CC(C)N(C(C)C)C(C)CN1C(=O)/C(=N/NC(N)=O)c2ccccc21 (stereo not given)
Reply: 201 to 204 °C

Task item: Give the reported melting point for this molecule. "COc1ccc(S(=O)(=O)C(CCCc2ccccc2)(CCCc2ccccc2)C(=O)O)cc1"
Reply: 118 to 120 °C

Task item: Give the reported melting point for this molecule. "N#Cc1ccc(O[C@@H]2c3cccnc3C[C@H]2N2CCC[C@@H](N)C2)c(Cl)c1"
Reply: 172 °C

Task item: Give the reported melting point for this molecule. "O=C(Nc1ccc(S(=O)(=O)Cl)cc1)c1ccccc1"
Reply: 176 to 178 °C

Task item: Give the reported melting point for this molecule. "CCOc1ccc2c(c1)CCN(C(=O)OCc1ccccc1)C21CCC(C(=O)O)(C(=O)O)CC1"
Reply: 184 to 185 °C

Task item: Give the reported melting point for this molecule. "COC(=O)c1cc(=O)c2oc3ccccc3c(=O)c2n1C"
Reply: 290 to 293 °C

Task item: Give the reported melting point for this molecule. "COc1c(N2CC[C@H]([C@@H](C)NC(=O)OC(C)(C)C)C2)c(F)cc2c(=O)n(N)c(=O)n(C3CC3)c12"
Reply: 96 to 98 °C

Task item: Give the reported melting point for this molecule. "O=c1sc(CO)c(C(F)(F)F)n1-c1ccccc1"
Reply: 135 °C
